Would you kindly list pIC50 for each of these molecules?
Target: P2X7 receptor (Homo sapiens)
Construct: host or cells: THP-1 cells differentiated with LPS and IFN-γ
Sequence (Q99572 1-595): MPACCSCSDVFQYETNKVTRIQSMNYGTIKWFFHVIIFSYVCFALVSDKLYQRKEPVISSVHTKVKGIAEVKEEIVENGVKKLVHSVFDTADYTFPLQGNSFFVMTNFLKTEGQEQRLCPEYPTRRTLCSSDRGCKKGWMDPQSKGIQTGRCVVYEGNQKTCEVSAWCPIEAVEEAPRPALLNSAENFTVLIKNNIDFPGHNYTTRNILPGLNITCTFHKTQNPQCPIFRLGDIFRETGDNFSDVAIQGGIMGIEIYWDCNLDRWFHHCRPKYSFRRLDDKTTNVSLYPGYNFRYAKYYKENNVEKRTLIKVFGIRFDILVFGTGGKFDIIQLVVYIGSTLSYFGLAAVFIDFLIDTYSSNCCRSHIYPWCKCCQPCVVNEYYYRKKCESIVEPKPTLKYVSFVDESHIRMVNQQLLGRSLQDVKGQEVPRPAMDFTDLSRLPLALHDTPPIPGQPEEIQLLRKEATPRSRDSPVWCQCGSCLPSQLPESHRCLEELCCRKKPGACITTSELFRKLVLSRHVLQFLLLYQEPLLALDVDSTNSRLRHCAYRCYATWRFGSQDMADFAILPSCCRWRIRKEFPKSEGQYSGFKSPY
Assay: IL-1β release assay in differentiated THP-1 cells stimulated with BzATP (Example 9)
Type: cell-based
Conditions: THP-1 cells, BzATP-stimulated IL-1β release, four parameter logistic fit
When answering, recall that pIC50 equals minus log10 of the concentration in mol/L, and write that number alone.

Inquiry: // lookup pIC50 for "CS(=O)(=O)CCn1ccc2c(NC(=O)Cc3ccc(Cl)c(C(F)(F)F)c3)cccc2c1=O"
Reply text: 6.96

Inquiry: Look up pIC50: "O=C(CC1CCCCCC1)Nc1cccc2c(=O)n(Cc3ccc4c(c3)OCCO4)ccc12"
Reply text: 9.45

Inquiry: Tell me the measured pIC50 of "CC(=O)OCCn1ccc2c(NC(=O)Cc3ccc(Cl)cc3Cl)cccc2c1=O" , please.
Reply text: 7.47

Inquiry: Item "CN(C)CCn1ccc2c(NC(=O)Cc3ccc(Cl)cc3Cl)cccc2c1=O" has what recorded pIC50?
Reply text: 6.83

Inquiry: Using the record for "CCOc1ccccc1CC(=O)Nc1cccc2c(=O)n(Cc3cccnc3)ccc12" , report its pIC50.
Reply text: 6.39

Inquiry: Any idea what pIC50 was measured for CN(C)CCn1ccc2c(NC(=O)C(Cl)c3ccccc3)cccc2c1=O (stereo not drawn) ?
Reply text: 6.43

Inquiry: Tell me the measured pIC50 of "CC(=O)OCCn1ccc2c(NC(=O)CCc3cc(C(F)(F)F)ccc3C(F)(F)F)cccc2c1=O" , please.
Reply text: 7.39

Inquiry: # pIC50 lookup, item "O=C(Cc1ccc(Cl)c(C(F)(F)F)c1)Nc1cccc2c(=O)n(Cc3ccc(C(F)(F)F)nc3)ccc12"
Reply text: 6.44
